test settings: SNAC solubility vs SNAC control; hydrotrope 200 mg/mL, pH 6
experimental endpoint: Fold increase in solubility

Known results for compounds:
Reported Fold increase in solubility for CN(C)C(=O)c1ccccc1 [N,N dimethyl benzamide] : what is it?
38

Reported Fold increase in solubility for CCN(CC)C(=O)c1cccnc1 [N,N diethyl nicotinamide] : what is it?
7.8

I = O=C(O[C@@H]1Cc2c(O)cc(O)cc2O[C@@H]1c1cc(O)c(O)c(O)c1)c1cc(O)c(O)c(O)c1 [Epigallocatechin gallate]
II = NC(N)=O
Hi team, can someone confirm which has the larger Fold increase in solubility: I or II ? Thanks. Your answer should be the label of the entry you select.
I
(I: 9.6, II: 1.3)
